All values here come from the supplement of paper PMC10567573.

B1: SLC6A17 (parent)
chain: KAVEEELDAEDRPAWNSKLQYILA

variants of: B1; test: protein stability index of a GFP-peptide fusion (GPS, HEK-293T) (PSI 1-6); higher = more stable; settings: c terminus: a fixed tail appended;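 also: lentivirally expressed fusions sorted by FACS into six bins by GFP to DsRed ratio, PSI derived from sequencing read proportions per bin multiplied by bin number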

{"CHANGES": "L7G", "protein stability index": 4.11}
{"CHANGES": "N16D", "protein stability index": 3.45}
{"CHANGES": "W15S", "protein stability index": 3.92}
{"CHANGES": "V3M", "protein stability index": 2.19}
{"CHANGES": "R12K", "protein stability index": 2.83}
{"CHANGES": "V3P", "protein stability index": 2.58}
{"CHANGES": "L23S", "protein stability index": 4.23}
{"CHANGES": "K1F", "protein stability index": 2.71}
{"CHANGES": "E4Y", "protein stability index": 1.8}
{"CHANGES": "R12P", "protein stability index": 2.44}
{"CHANGES": "A2H", "protein stability index": 2.24}
{"CHANGES": "A14T", "protein stability index": 3.2}
{"CHANGES": "L7T", "protein stability index": 3.1}
{"CHANGES": "I22M", "protein stability index": 1.79}
{"CHANGES": "L19S", "protein stability index": 2.75}
{"CHANGES": "D8C", "protein stability index": 2.14}
{"CHANGES": "D11F", "protein stability index": 2.07}
{"CHANGES": "Y21S", "protein stability index": 3.92}
{"CHANGES": "S17E", "protein stability index": 4.48}
{"CHANGES": "K1W", "protein stability index": 1.74}
{"CHANGES": "W15R", "protein stability index": 3.62}
{"CHANGES": "L7Q", "protein stability index": 2.53}
{"CHANGES": "Q20E", "protein stability index": 2.89}
{"CHANGES": "I22A", "protein stability index": 3.8}
{"CHANGES": "E6T", "protein stability index": 2.24}
{"CHANGES": "A14F", "protein stability index": 2.18}
{"CHANGES": "A24D", "protein stability index": 3.55}
{"CHANGES": "D11Y", "protein stability index": 1.42}
{"CHANGES": "A2W", "protein stability index": 1.49}
{"CHANGES": "S17N", "protein stability index": 3.15}
{"CHANGES": "D8I", "protein stability index": 2.57}
{"CHANGES": "L7F", "protein stability index": 2.23}
{"CHANGES": "P13D", "protein stability index": 2.72}
{"CHANGES": "P13L", "protein stability index": 1.85}
{"CHANGES": "A2V", "protein stability index": 2.23}
{"CHANGES": "K18L", "protein stability index": 1.98}
{"CHANGES": "A24V", "protein stability index": 1.68}
{"CHANGES": "R12I", "protein stability index": 2.47}
{"CHANGES": "V3I", "protein stability index": 2.41}
{"CHANGES": "D11K", "protein stability index": 2.67}
{"CHANGES": "E4H", "protein stability index": 2.24}
{"CHANGES": "V3T", "protein stability index": 2.43}
{"CHANGES": "E4T", "protein stability index": 3.27}
{"CHANGES": "E5K", "protein stability index": 2.08}
{"CHANGES": "V3K", "protein stability index": 2.94}
{"CHANGES": "K1I", "protein stability index": 2.12}
